biological target: UniProt:P35270
Sequence (P35270 whole entry): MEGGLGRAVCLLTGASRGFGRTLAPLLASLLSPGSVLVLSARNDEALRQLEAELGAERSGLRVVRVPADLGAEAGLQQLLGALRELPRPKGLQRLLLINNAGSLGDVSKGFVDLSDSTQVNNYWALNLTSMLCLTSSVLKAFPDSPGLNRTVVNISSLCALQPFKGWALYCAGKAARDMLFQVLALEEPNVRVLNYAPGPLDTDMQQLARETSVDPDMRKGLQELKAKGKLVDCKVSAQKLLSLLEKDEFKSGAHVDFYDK
Rule: IC50 below 2 nM gives yes (1). Equal to or above 2 nM gives no (0).

In [3]: df
Out[3]:
                                    compound   system_tested  assigned_category
 0  Cc1c(C(=O)N2CCN(S(=O)(=O)c3ccc(Cl)s3)CC2)cnn1-c1nn2cccc2c(=O)[nH]1  UniProt:P35270            yes (1)
 1  Cc1c(C(=O)N2CCC3(CC2)CC3)cnn1-c1nn2cccc2c(=O)[nH]1  UniProt:P35270            yes (1)
 2  Cc1c(C(=O)N2CCC3(CCCCC3=O)CC2)cnn1-c1nn2cccc2c(=O)[nH]1  UniProt:P35270            yes (1)
 3  Cc1c(C(=O)N(CC2COc3ccccc3O2)C(C)C)cnn1-c1nc2c(c(=O)[nH]1)CCC2 (stereo not drawn)  UniProt:P35270             no (0)
 4  Cc1c(C(=O)N2CCN(c3ncc(-c4ccccc4C(F)(F)F)o3)CC2)cnn1-c1nn2cccc2c(=O)[nH]1  UniProt:P35270             no (0)
 5  Cc1c(C(=O)N2CCc3nc(-c4ccc(F)cc4)sc3C2)cnn1-c1nn2cccc2c(=O)[nH]1  UniProt:P35270             no (0)
 6  Cc1c(C(=O)N2CC3CC(=O)CC3C2)cnn1-c1nn2cccc2c(=O)[nH]1 (stereo not drawn)  UniProt:P35270             no (0)
 7  Cc1c(C(=O)N2CCC(c3nc(-c4ccccc4)co3)CC2)cnn1-c1nc2c(c(=O)[nH]1)CCC2  UniProt:P35270             no (0)
 8  Cc1c(C(=O)N2CC(N(C)C(=O)OC(C)(C)C)C2)cnn1-c1nn2cccc2c(=O)[nH]1  UniProt:P35270            yes (1)
 9  Cc1c(C(=O)N2CCC3(CCCC3)CC2)cnn1-c1nc2ccsc2c(=O)[nH]1  UniProt:P35270             no (0)
10  Cc1cc(=O)[nH]c(-n2ncc(C(=O)N3CCc4ccccc4C3)c2C(F)(F)F)n1  UniProt:P35270             no (0)
11  Cc1c(C(=O)N2CC(c3ccc(F)nc3)C2)cnn1-c1nn2cccc2c(=O)[nH]1  UniProt:P35270            yes (1)
12  Cc1c(C(=O)N2CCC3(CCCC3)C2)cnn1-c1nn2cccc2c(=O)[nH]1  UniProt:P35270            yes (1)
13  Cc1c(C(=O)N2CCC(C#N)(c3ccccc3)CC2)cnn1-c1nc2sccc2c(=O)[nH]1  UniProt:P35270             no (0)
14  Cc1c(C(=O)N2CC3(C2)CC(F)(F)C3)cnn1-c1nc2cc[nH]c2c(=O)[nH]1  UniProt:P35270             no (0)
15  Cc1c(C(=O)N2CC3CC(C2)N3CC(F)(F)F)nnn1-c1nn2cccc2c(=O)[nH]1  UniProt:P35270            yes (1)
16  Cc1c(C(=O)N2CCn3c(nnc3C(F)(F)F)C2)cnn1-c1nn2cccc2c(=O)[nH]1  UniProt:P35270             no (0)
17  Cc1c(C(=O)N2CCC3(CC2)CC3C(=O)N2CCCCC2)cnn1-c1nn2cccc2c(=O)[nH]1 (stereo not drawn)  UniProt:P35270            yes (1)
18  Cc1c(C(=O)N2CCC(c3ccccc3)CC2)cnn1-c1nc2[nH]ccc2c(=O)[nH]1  UniProt:P35270             no (0)
19  Cc1c(C(=O)N2CCN(CC(F)(F)F)CC2)cnn1-c1nn2cccc2c(=O)[nH]1  UniProt:P35270            yes (1)
20  Cc1cc(=O)[nH]c(-n2ncc(C(=O)NCc3cnccn3)c2C)n1  UniProt:P35270             no (0)
21  CCC(C1CCN(C(=O)c2cnn(-c3nn4cccc4c(=O)[nH]3)c2C)CC1)C(F)(F)F (stereo not drawn)  UniProt:P35270            yes (1)
22  Cc1c(C(=O)N2CCC(c3nc(C#N)co3)CC2)cnn1-c1nn2cccc2c(=O)[nH]1  UniProt:P35270            yes (1)
23  Cc1c(C(=O)N2CCc3ccccc3C2)cnn1-c1nc2cc(Cl)sc2c(=O)[nH]1  UniProt:P35270             no (0)
24  Cc1c(C(=O)N2CCC(Oc3ccccc3)CC2)cnn1-c1nc2c(c(=O)[nH]1)CCC2  UniProt:P35270             no (0)
25  Cc1c(C(=O)N2CCC(C(F)(F)F)CC2C)cnn1-c1nc2c(c(=O)[nH]1)CCC2 (stereo not drawn)  UniProt:P35270             no (0)
26  O=C(c1cnn(-c2nn3cccc3c(=O)[nH]2)c1)N1CCC(C2CC2)CC1  UniProt:P35270            yes (1)
27   O=C(O)c1ccnc(-c2nc3c(c(=O)[nH]2)CCC3)c1  UniProt:P35270             no (0)
